Some compounds, each annotated with its measured Ki.
biological target: Muscarinic acetylcholine receptor M1 (Homo sapiens, UniProt P11229); assay: Displacement of [3H]-NMS from human muscarinic M1 receptor stably expressed in CHO-K9 cells by radioligand competitive binding assay; type: cell-based
Sequence (P11229 whole entry): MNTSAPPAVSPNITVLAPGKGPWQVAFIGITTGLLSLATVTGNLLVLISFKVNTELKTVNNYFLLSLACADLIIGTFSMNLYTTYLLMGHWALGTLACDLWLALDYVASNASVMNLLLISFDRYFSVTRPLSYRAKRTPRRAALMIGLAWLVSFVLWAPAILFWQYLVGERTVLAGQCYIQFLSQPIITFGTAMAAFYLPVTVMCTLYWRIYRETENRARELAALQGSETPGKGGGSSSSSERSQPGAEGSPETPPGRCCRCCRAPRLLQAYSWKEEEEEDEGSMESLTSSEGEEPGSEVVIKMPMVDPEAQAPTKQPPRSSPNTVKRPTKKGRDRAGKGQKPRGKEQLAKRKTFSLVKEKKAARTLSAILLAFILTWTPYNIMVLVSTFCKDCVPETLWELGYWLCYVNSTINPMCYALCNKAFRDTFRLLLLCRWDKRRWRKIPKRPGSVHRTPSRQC

structureSmiles: Cc1cc(/C=C/C=C/c2ccc(N(C)C)cc2)cc(C)[n+]1CCN1CCN(CCCCC2CCN(CC(=O)N3c4ccccc4NC(=O)c4ccccc43)CC2)CC1
Ki / nM: 13.8
--
structureSmiles: CC1(C)C(/C=C/C=C/C=C2/N(CCCCCC(=O)NCc3cc(C(=O)NCCNC(=O)CCc4cn(CCCCC5CCN(CC(=O)N6c7ccccc7NC(=O)c7ccccc76)CC5)cn4)cc(C(=O)NCCNC(=O)CCc4cn(CCCCC5CCN(CC(=O)N6c7ccccc7NC(=O)c7ccccc76)CC5)cn4)c3)c3ccc(S(=O)(=O)O)cc3C2(C)C)=[N+](CCCCS(=O)(=O)[O-])c2ccccc21.O=C(O)C(F)(F)F.O=C(O)C(F)(F)F.O=C(O)C(F)(F)F
Ki / nM: 2.29
--
structureSmiles: CC1(C)C(/C=C/C=C/C=C2/N(CCCCCC(=O)NCc3cc(C(=O)NCCN4CCC(N5CCC(n6c(=O)[nH]c7ccccc76)CC5)CC4)cc(C(=O)NCCN4CCN(CCCCC5CCN(CC(=O)N6c7ccccc7NC(=O)c7ccccc76)CC5)CC4)c3)c3ccc(S(=O)(=O)[O-])cc3C2(C)C)=[N+](CCCCS(=O)(=O)O)c2ccccc21.O=C(O)C(F)(F)F.O=C(O)C(F)(F)F.O=C(O)C(F)(F)F.O=C(O)C(F)(F)F
Ki / nM: 2.29
